From: ChEMBL document CHEMBL6114963

Test: Inhibition of human EGFR K716A/C797S/L858R mutant using poly[Glu:Tyr] (4:1) as substrate incubated for 120 mins in presence of [gamma33P]-ATP by Radiometric hotspot kinase assay

cpd_smiles | IC50
COc1cc(N2CCC(N3CCN(C)CC3)CC2)c(C)cc1Nc1ncc(Br)c(Nc2ccc(C)cc2P(C)(C)=O)n1 | 1.53 nM

---

Molecular target: ALK tyrosine kinase receptor (Homo sapiens, UniProt Q9UM73, C1156Y)
Sequence (Q9UM73 19-1620 C1156Y limits assumed): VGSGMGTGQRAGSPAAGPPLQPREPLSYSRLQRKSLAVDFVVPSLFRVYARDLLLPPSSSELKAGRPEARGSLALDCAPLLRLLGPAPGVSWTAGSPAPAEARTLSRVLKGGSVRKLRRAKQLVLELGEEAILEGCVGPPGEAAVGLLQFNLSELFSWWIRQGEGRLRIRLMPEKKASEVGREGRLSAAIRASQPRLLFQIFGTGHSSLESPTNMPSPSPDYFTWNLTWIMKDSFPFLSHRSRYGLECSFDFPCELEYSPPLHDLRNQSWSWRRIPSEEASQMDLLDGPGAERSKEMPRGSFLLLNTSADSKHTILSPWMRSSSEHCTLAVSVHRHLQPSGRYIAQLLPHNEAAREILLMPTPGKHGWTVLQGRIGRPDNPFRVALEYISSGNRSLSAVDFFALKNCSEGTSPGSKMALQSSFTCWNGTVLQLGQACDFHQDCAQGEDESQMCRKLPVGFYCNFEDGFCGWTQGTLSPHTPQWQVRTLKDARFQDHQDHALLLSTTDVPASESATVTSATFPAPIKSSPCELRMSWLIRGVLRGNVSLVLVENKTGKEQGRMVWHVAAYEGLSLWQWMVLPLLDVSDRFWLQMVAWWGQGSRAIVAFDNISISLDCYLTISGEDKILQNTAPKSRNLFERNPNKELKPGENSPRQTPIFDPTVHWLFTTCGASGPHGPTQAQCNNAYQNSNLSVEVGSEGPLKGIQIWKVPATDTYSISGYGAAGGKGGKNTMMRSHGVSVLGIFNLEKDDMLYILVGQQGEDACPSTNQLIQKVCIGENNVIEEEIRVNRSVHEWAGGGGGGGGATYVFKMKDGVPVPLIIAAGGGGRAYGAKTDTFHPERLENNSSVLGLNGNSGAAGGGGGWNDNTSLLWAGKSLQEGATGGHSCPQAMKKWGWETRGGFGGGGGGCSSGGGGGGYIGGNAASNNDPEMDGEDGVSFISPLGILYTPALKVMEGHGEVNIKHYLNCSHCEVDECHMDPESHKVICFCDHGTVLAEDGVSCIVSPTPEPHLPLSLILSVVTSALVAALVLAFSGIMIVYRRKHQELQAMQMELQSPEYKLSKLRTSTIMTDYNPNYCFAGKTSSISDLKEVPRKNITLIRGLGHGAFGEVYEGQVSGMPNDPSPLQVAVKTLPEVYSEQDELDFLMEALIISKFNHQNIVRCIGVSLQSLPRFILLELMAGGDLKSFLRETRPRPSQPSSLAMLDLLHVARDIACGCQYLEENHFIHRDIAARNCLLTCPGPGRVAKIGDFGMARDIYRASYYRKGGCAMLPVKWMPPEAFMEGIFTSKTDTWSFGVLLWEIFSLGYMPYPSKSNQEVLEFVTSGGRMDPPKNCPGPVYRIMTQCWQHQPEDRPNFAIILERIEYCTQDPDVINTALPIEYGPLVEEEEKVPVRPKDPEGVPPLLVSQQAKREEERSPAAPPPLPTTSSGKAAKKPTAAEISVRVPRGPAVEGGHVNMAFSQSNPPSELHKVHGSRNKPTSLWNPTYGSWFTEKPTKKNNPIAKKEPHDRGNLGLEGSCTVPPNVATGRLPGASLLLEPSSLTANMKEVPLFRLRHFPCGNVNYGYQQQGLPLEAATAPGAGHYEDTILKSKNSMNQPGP
Experiment: Inhibition of N-terminal GST-fused cytoplasmic domain human ALK C1156Y mutant (1058 to 1620 end residues) extracted from baculovirus expression system using Srctide as substrate incubated for 1 to 5 hrs in presence of ATP/Mg by Mobility shift assay
property_label: IC50 (nM)

cpd_smiles | measured_value
COc1cc(N2CCC(N3CCN(C)CC3)CC2)c(C)cc1Nc1ncc(Br)c(Nc2ccc(C)cc2P(C)(C)=O)n1 | 0.91

---

Assay: Half life in male Sprague-Dawley rat plasma at 10 mg/kg, po measured upto 72 hrs
Type: ADME, organism-based

compound | half-life / h
COc1cc(N2CCC(N3CCN(C)CC3)CC2)ccc1Nc1ncc(Cl)c(Nc2ccccc2P(C)(C)=O)n1 [BRIGATINIB] | 18.6
COc1cc(N2CCC(N3CCN(C)CC3)CC2)c(C)cc1Nc1ncc(Br)c(Nc2ccc(C)cc2P(C)(C)=O)n1 | 12.6

---

Experiment: Half life in male Cynomolgus monkey plasma at 3 mg/kg, po measured after 96 hrs LC-MS/MS analysis
Type: ADME, organism-based, Macaca fascicularis

cpd_smiles | half-life (h)
COc1cc(N2CCC(N3CCN(C)CC3)CC2)c(C)cc1Nc1ncc(Br)c(Nc2ccc(C)cc2P(C)(C)=O)n1 | 11.3

---

Target: Cytochrome P450 2B6 (Homo sapiens)
Sequence (P20813 whole entry): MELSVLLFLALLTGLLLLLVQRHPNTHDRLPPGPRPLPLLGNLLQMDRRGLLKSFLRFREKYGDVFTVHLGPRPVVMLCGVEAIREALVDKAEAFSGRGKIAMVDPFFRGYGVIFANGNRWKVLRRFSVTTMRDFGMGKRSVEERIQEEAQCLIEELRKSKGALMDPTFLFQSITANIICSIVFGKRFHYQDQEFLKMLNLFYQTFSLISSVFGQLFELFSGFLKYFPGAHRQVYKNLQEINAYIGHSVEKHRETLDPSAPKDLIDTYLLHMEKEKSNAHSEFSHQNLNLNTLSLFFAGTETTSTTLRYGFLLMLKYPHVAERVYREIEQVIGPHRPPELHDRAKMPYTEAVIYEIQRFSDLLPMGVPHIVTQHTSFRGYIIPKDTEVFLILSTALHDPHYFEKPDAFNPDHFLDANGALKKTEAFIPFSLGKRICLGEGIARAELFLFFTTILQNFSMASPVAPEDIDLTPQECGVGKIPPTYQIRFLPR
pIC50: −log10 of the molar value.
property_label: pIC50

cpd_smiles | measured_value
COc1cc(N2CCC(N3CCN(C)CC3)CC2)c(C)cc1Nc1ncc(Br)c(Nc2ccc(C)cc2P(C)(C)=O)n1 | < 4.30

---

Experiment: Tmax in male Cynomolgus monkey plasma at 3 mg/kg, iv measured after 72 hrs LC-MS/MS analysis
Format: ADME, organism-based, Macaca fascicularis

cpd_smiles | units_label | Tmax
COc1cc(N2CCC(N3CCN(C)CC3)CC2)c(C)cc1Nc1ncc(Br)c(Nc2ccc(C)cc2P(C)(C)=O)n1 | min | 4.98

---

Assay: MRT (0 to infinity) in male Cynomolgus monkey plasma at 3 mg/kg, iv measured after 72 hrs LC-MS/MS analysis
Format: ADME, organism-based, Macaca fascicularis
property_label: MRT inf (h)

cpd_smiles | property_label | measured_value
COc1cc(N2CCC(N3CCN(C)CC3)CC2)c(C)cc1Nc1ncc(Br)c(Nc2ccc(C)cc2P(C)(C)=O)n1 | MRT inf | 12.7

---

Biological target: Cytochrome P450 1A2 (Homo sapiens, UniProt P05177)
Sequence (P05177 whole entry): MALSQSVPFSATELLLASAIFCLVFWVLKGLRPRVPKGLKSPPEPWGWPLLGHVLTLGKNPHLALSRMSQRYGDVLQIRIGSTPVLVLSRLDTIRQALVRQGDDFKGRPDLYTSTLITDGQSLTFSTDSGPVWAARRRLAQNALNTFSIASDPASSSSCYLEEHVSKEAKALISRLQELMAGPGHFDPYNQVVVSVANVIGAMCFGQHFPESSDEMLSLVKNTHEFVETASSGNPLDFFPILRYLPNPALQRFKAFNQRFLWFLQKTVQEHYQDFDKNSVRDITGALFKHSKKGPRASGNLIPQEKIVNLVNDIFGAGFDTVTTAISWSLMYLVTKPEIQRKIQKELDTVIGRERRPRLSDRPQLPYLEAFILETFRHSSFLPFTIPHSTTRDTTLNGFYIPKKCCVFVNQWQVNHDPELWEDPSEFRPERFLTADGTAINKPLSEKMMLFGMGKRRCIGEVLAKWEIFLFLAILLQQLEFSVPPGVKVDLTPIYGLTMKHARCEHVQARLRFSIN

cpd_smiles | IC50
COc1cc(N2CCC(N3CCN(C)CC3)CC2)c(C)cc1Nc1ncc(Br)c(Nc2ccc(C)cc2P(C)(C)=O)n1 | > 50 µM
